B1: library; numbered along this chain (parent)
chain: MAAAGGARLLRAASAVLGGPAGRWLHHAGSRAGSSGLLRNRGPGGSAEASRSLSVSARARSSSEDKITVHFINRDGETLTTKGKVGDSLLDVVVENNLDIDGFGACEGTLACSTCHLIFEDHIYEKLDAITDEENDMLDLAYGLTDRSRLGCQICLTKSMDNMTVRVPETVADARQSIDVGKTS

- Variants of: B1
- assay.remarks: scaled log2 fold change in cell abundance, elesclomol vs control (0 = silent mean, 1 = nonsense mean) (scaled log2 ratio); higher = higher viability under elesclomol (loss of FDX1 cuproptosis function);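 note: variant abundance is its share of total variant reads in each endpoint sample, from next-generation sequencing of the integrated ORF PCR-amplified out of genomic DNA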
- assay.conditions: with HEK293T FDX1 KO; elesclomol 40 nM; glucose 10 mM; 11 days
If the reported scaled log2 fold change equals or exceeds 0.3, assign Met. If not, assign Not met.

{"changes": "A57N", "cat": "Not met"}

# input API: above_or_equal(metric=scaled log2 fold change, cutoff=0.3) for item F103G
# output Met

# input Then G6A ?
# output Not met

# input Then L9I ?
# output Not met

# input Then S46C ?
# output Met

# input Then K182Y ?
# output Not met

# input Then N96L ?
# output Not met

# input Then Y142E ?
# output Not met

# input Then T109L ?
# output Met

# input Then R175Y ?
# output Not met

# input Then V85Y ?
# output Not met

# input Then H27R ?
# output Not met

# input Then A3T ?
# output Not met

# input Then I130C ?
# output Met

# input Then S148A ?
# output Not met

# input Then G83I ?
# output Met

# input Then E134Y ?
# output Met

# input Then D132L ?
# output Not met

# input Then G83D ?
# output Met

# input Then K126C ?
# output Not met

# input Then F103R ?
# output Met

# input Then V180M ?
# output Met

# input Then L90Q ?
# output Not met

# input Then R39W ?
# output Not met
